Cited source for all entries: PubChem BioAssay (Tox21)

method-summary: qHTS assay to identify aromatase inhibitors - cell viability counter screen (AID 743084);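 note: cells stimulated with testosterone during compound exposure; nearly all actives have a fitted effect of over 55% in size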
assay-conditions: MCF-7 aro ERE viability, CellTiter-Fluor, 24 h; series mostly up to 70.3 µM
Inconclusive results are not listed. The source made the active and inactive calls. Calls come from the whole dose curve; as a rule, active = well fitted cell-killing curve with a large enough effect in the repeat runs; inconclusive = weak or mixed curves, or effect the other way; inactive = no such curve, though single readings can be large or run the other way.
Field 'call' accepts active, inactive

Exam item: Please indicate how the test categorized `CCN(CC)CCNc1ccc(CO)c2sc3ccccc3c(=O)c12` .
Marked response: inactive

Exam item: Please indicate how the test categorized `Cc1c(C(=O)O)cccc1[N+](=O)[O-]` .
Marked response: inactive

Exam item: Please indicate how the test categorized `COC(=O)CC#N` .
Marked response: inactive

Exam item: Please indicate how the test categorized CCN(CC)CCOc1ccc(C(O)(Cc2ccc(Cl)cc2)c2ccc(C)cc2)cc1 (configuration not stated) .
Marked response: inactive

Exam item: Please indicate how the test categorized `CCN(CC)c1ccc(N)cc1` .
Marked response: active

Next:
Exam item: Please indicate how the test categorized `C=CCCCCCCC=C` .
Marked response: inactive

Exam item: Please indicate how the test categorized `CC(=O)Oc1ccc(C2(c3ccc(OC(C)=O)cc3)Oc3ccccc3NC2=O)cc1` .
Marked response: inactive
